target or test system: T1, membrane LIGHT V196A (human, UniProt O43557 1-240)
T1 chain: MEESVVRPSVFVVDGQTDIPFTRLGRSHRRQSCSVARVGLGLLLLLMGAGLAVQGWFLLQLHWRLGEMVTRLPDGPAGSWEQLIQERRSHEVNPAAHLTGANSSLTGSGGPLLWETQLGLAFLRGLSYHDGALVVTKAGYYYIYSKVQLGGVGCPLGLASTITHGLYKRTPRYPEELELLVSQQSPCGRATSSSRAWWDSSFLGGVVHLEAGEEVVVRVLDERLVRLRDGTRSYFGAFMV
method notes: flow cytometry, transfected HEK293FF, mAb at EC50
measured attribute: binding, % of WT

Summary for this binder, 3D12 (antibody, human IgG4, V domains shown, chimeric: mouse variable domains on human IgG4 HC (S-to-P and L-to-E at 248) and human CL; also called Parental 3D12; 3D12 chimeric) VH: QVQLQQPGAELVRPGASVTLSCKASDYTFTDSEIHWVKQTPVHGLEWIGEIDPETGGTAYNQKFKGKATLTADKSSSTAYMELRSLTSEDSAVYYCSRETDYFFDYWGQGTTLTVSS VL: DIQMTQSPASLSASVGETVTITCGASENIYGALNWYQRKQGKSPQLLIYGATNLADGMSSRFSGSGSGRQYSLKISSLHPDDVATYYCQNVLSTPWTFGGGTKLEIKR : binding, % of WT is 70%

Summary for this binder, 3C10 (antibody, human IgG4, V domains shown, chimeric human IgG4 (S-to-P, L-to-E at 248), human CL; also called Parental 3C10) VH: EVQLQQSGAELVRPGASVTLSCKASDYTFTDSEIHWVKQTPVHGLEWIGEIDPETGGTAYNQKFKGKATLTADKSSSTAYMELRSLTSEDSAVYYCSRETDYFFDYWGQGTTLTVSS VL: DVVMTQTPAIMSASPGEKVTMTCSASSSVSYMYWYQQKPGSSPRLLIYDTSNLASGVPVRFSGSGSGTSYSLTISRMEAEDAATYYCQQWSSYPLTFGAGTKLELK : binding, % of WT is 78%

Summary for this binder, 3B04 (antibody, human IgG4, V domains shown, chimeric: mouse variable domains on human IgG4 HC (S-to-P and L-to-E at 248) and human CL; also called Parental 3B04; 3B04 chimeric) VH: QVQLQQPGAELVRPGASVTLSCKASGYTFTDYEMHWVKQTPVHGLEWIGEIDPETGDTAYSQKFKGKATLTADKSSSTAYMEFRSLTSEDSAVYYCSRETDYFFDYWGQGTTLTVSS VL: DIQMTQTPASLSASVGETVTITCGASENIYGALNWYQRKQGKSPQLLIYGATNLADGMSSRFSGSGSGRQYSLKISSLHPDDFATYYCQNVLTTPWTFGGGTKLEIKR : binding, % of WT is 80%

Summary for this binder, 2B11 (antibody, human IgG4, V domains shown, chimeric human IgG4 (S-to-P, L-to-E at 248), human CL; also called Parental 2B11) VH: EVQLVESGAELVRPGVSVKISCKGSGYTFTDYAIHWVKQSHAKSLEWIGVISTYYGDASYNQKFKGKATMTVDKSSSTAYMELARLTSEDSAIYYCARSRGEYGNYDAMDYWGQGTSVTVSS VL: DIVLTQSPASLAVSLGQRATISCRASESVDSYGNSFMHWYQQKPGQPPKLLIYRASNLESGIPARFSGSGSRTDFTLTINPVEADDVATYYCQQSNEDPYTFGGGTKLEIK : binding, % of WT is 73%

Summary for this binder, 3A07 (antibody, human IgG4, V domains shown, chimeric human IgG4 (S-to-P, L-to-E at 248), human CL; also called Parental 3A07) VH: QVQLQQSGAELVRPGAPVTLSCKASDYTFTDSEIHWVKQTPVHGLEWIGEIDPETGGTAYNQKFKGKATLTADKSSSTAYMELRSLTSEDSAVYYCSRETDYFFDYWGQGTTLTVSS VL: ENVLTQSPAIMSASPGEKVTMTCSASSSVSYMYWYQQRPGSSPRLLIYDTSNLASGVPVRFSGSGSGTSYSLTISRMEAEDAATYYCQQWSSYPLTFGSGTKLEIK : binding, % of WT is 77%

Summary for this binder, 3E09 (antibody, V domains shown, chimeric human IgG4 (S-to-P, L-to-E at 248), human CL; also called Parental 3E09) VH: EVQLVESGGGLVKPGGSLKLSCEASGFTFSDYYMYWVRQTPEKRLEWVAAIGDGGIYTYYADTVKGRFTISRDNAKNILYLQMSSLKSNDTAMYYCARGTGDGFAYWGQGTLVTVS VL: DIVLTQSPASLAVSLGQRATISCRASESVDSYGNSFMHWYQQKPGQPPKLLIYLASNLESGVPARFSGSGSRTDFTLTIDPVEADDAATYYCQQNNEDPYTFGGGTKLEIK : binding, % of WT is 34%

Summary for this binder, 2E08 (antibody, human IgG4, V domains shown, chimeric human IgG4 (S-to-P, L-to-E at 248), human CL; also called Parental 2E08) VH: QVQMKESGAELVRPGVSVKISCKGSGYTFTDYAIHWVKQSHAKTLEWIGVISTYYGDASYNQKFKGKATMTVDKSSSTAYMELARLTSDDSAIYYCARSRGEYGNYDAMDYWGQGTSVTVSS VL: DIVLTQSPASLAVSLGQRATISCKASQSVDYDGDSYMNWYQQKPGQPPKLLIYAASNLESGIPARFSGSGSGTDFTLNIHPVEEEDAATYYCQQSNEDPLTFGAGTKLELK : binding, % of WT is 99%
